Values were extracted from PubChem BioAssay (NCI).

# Tested on: OVCAR-4 ovarian
# Experiment: NCI-60 one-dose screen, 48 h (100 = growth as untreated, 0 = no growth, -100 = all killed)
# Run conditions: 10 µM unless noted
The panel holds about 83,000 compounds, 20% with a hit somewhere; the sample as a whole holds those more often. Activity calls are given as the source filed them. The calls were made as follows: active = growth percent below 10; inactive = the rest.

| Molecule | growth |
| --- | --- |
| NC(CSC(c1ccccc1)(c1ccccc1)c1ccc(Cl)cc1)C(=O)O (stereo unspecified) | 63.2% (inactive) |
| Cc1cc2nc3[nH]c4ccccc4c3nc2cc1C | 82.8% (inactive) |
| Cn1c(=O)c2c(nc3n(-c4ccc(Cl)cc4Cl)c(Sc4nc(-c5ccccc5)c(C#N)c(=O)[nH]4)cn23)n(C)c1=O | -33.1% (active) |
| C#CCOc1ccc2ncnc(N3CCN(C(=O)CCl)CC3)c2c1 | 63.8% [8.25 µM] (inactive) |
| O=Nc1c(O)c(Cl)cc2ccccc12 | 78.9% (inactive) |
| COc1ccc(-c2cc(Nc3ccnc(N4CCOCC4)n3)on2)cc1 | 62.1% (inactive) |
| CCN=C1C=CC(=C(c2ccc(N)cc2)c2ccc(N(CC)CC)c(C)c2)C=C1 | 24.2% (inactive) |
| COc1ccccc1Nc1nc(-c2cc3cccc(C(F)(F)F)c3oc2=O)cs1 | 37.1% (inactive) |
| Cc1ccc2c(C(C[N+](=O)[O-])c3ccccc3F)c(-c3ccccc3)[nH]c2c1 (stereo unspecified) | 65.7% (inactive) |
| O=C(/C=C/c1ccc(C(F)(F)F)cc1)Nc1ccc(C=C2c3ccccc3C(=O)c3ccccc32)cc1 | 47.5% (inactive) |
| O=C1Nc2c(ccc(Cl)c2Cl)/C1=C\c1cc(C(F)(F)F)cc(C(F)(F)F)c1 | 9.67% (active) |
| CSc1nc(NCCO)c(C#N)c(-c2cccc([N+](=O)[O-])c2)n1 | 105% (inactive) |
| CCN(CC)CCCCNc1c2ccc(Cl)cc2nc2ccc(OC)cc12 | -50.2% (active) |
| CNc1ccc(-c2cc(=O)oc3ccc(Cl)cc23)cc1 | 62.6% (inactive) |
| CCOC(=O)n1cc(-c2nonc2-c2cn(C)c3ncccc23)c2ccccc21 | 71.3% (inactive) |
| Cc1ccc(NS(=O)(=O)c2ccc(-c3cnc(C4CC4)o3)cc2)cc1C | 43.2% (inactive) |
| C=CC(=O)Nc1cccc(-c2nc(SC)nc(Nc3cccc(OC)c3)c2C#N)c1 | 62.5% (inactive) |
| CC(=O)Nc1ccc(-n2c(O)c(/C=N/NC(=O)Cc3ccccc3Nc3c(Cl)cccc3Cl)sc2=S)cc1 | 105% (inactive) |
| O=C1CC(=NCC(=O)n2c(-c3ccccc3)nc3ccccc32)NN1 | 97.5% (inactive) |
| CCOc1cc2ncc(C#N)c(Nc3ccc(OCc4cccc(F)c4)c(Cl)c3)c2cc1NC(=O)CC1CCSS1 (stereo unspecified) | -33.3% (active) |
| O=c1c(F)cn(Cc2ccccc2CCl)c(=O)n1Cc1ccccc1CCl | -15.3% (active) |
| COc1cc(/C=C/C(=O)c2cccnc2Nc2ccc(F)cc2)cc(OC)c1OC | 61.6% (inactive) |
| C=CCSSC1N=CNc2nc[nH]c21 (stereo unspecified) | 34.4% (inactive) |
| COc1ccc(/C=C(\C#N)C(=O)Nc2cccc(Nc3nc(SC)nc(-c4cccc([N+](=O)[O-])c4)c3C#N)c2)cc1OC | 91.1% (inactive) |
| CC(=O)Oc1ccc(Cl)cc1CN(C(C)=O)C1CCCCC1 | 119% (inactive) |
| COc1cccc(-c2nc3sccn3c2-c2ccnc(NCCCNS(=O)(=O)c3cccc(F)c3)c2)c1 | 20.2% (inactive) |
| O=C1C=C(OCC=C(Cl)Cl)C(=O)c2ccccc21 | 15.9% (inactive) |
| O=C(N=Nc1c(O)[nH]c2ccc(Br)cc12)c1cc(-c2ccccc2)on1 | 94.9% (inactive) |
| Nc1ccc(S(=O)(=O)O)c2ccc(N=Nc3ccc(N=Nc4ccc(S(=O)(=O)O)cc4)c4ccccc34)c(O)c12 | 115% (inactive) |
| CCN(CC)c1ccc(/C=N\NC(=O)/C=C/C=C/c2ccc3c(c2)OCO3)c(O)c1 | 15.3% (inactive) |
| Cc1cc(NS(=O)(=O)c2ccc(-c3cnc(C4CC4)o3)cc2)ccc1Cl | 44.7% (inactive) |
| COc1cccc(/C=C2\Oc3cc(OCCN4CCCC4)ccc3C2=O)c1 | 111% (inactive) |
| O=C(CN(C(=O)Cn1c(=O)n2nnnc2c2ccccc21)c1ccccc1C(F)(F)F)Nc1ccc(C(F)(F)F)cc1 | 97.1% (inactive) |
| O=C1/C(=C/c2ccc(Cl)cc2)SC(=S)N1CCc1ccc(O)cc1 | 58.4% (inactive) |
| CC(=O)c1cc2c(N)c(C(=O)Nc3ccccc3)sc2nc1C | 88.9% (inactive) |
| Cc1ccc(C(SCC(N)C(=O)O)(c2ccccc2)c2ccc(C)cc2)cc1 (stereo unspecified) | 61.5% (inactive) |
| O=C1NC(=S)N[C@H]1CC(=O)n1cnc2ccccc21 | 107% (inactive) |
| COc1nc2c(c(=O)n1C)CN(Cc1ccccc1)C=N2 | 116% (inactive) |
| COc1ccc(C(=O)COc2ccc(/C=C3\Oc4ccc(OC)cc4C3=O)cc2)cc1 | 115% (inactive) |
| CCCCCCN(CCCCCC)CCC(O)c1ccc2ccccc2c1 (stereo unspecified) | 45.7% (inactive) |
| CCN1CCN(c2nc(NCCCNc3ccnc4cc(Cl)ccc34)c3ccccc3n2)CC1 | 48% (inactive) |
